# targetUnderTest: GST-Bc1-2 (Homo sapiens)
# Sequence (P10415 whole entry): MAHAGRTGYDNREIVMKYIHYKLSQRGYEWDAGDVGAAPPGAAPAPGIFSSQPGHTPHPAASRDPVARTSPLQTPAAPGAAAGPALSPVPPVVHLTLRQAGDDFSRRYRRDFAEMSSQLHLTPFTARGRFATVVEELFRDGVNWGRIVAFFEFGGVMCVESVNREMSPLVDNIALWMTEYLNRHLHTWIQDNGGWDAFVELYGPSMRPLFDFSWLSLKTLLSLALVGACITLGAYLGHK
# assayInfo: Time Resolved-Fluorescence Resonance Energy Transfer (TR-FRET) Bcl-2 binding assay with F-Bak peptide probe
# testContext: Table 4, selected compounds of Ser. No. 12/631,404; read-out: Bcl-2 FRET Ki
pKi: −log10 of the molar value.
propertyMeasured: pKi

structureassmiles=CC1(C)CCC(CN2CCN(c3ccc(C(=O)NS(=O)(=O)c4ccc(N[C@H]5CC[C@H](N6CCOCC6)CC5)c([N+](=O)[O-])c4)c(Oc4ccc5[nH]ccc5c4)c3)CC2)=C(c2ccc(Cl)cc2)C1 measurednumber=9.65
structureassmiles=CC1(C)CC(c2ccc(Cl)cc2)=C(CN2CCN(c3ccc(C(=O)NS(=O)(=O)c4ccc(NCC5CCOCC5)c([N+](=O)[O-])c4)c(Oc4ccc5[nH]ccc5c4)c3)CC2)CO1 measurednumber=10.08
structureassmiles=COCCNc1ccc(S(=O)(=O)NC(=O)c2ccc(N3CCN(CC4=C(c5ccc(Cl)cc5)CC(C)(C)CC4)CC3)cc2Oc2ccc3[nH]ccc3c2)cc1[N+](=O)[O-] measurednumber=9.74
